System: SK-MEL-2 melanoma
measurementNotes: NCI tumour cell line growth inhibition, 48 h
Field: TGI. Provide a value for each of the compounds that follow.

Which TGI reading was recorded for the compound N=C(N)c1ccc(-c2ccc(-c3ccccc3)o2)o1 ?
4.2 µM

Any idea what TGI was measured for C[C@]12CC[C@H](O)CC1CCC[C@@H]2O (stereo partly drawn) ?
> 100 µM

Bench note: what TGI did O=C(O)Cc1ccc(-n2nnc3c(=O)[nH][nH]c(=O)c32)cc1 show?
> 100 µM

----------
Assign TGI to each entry below.
System: OVCAR-4 ovarian
measurementNotes: NCI tumour cell line growth inhibition, 48 h

Any idea what TGI was measured for O=C1COCCN1c1ccc(NCc2cn(Cc3ccc(F)cc3)c3ccccc23)cc1 ?
3 µM

Given the compound CC1(C)OC(=O)C(c2ccsc2)C(=O)O1 , what is its reported TGI?
> 100 µM

Find the recorded TGI belonging to COc1ccc(/C=C2/C(=O)C(c3ccccc3)N(c3ccccc3)C2=O)cc1OC (stereo not given) and report it.
> 10 µM

What TGI value was documented for this compound, Cn1c(=O)ccc2cc(C(=O)c3ccccc3)ccc21 ?
> 100 µM

Any idea what TGI was measured for C[C@H](OC(=O)/C=C/c1ccc(O)c(O)c1)[C@H](C)OC(=O)/C=C/c1ccc(O)c(O)c1 ?
> 100 µM
